Each record here notes measured stoichiometry N.
tested.system: the molecule itself
experiment.summary: SEC; 16/60 Sephacryl S-300 HR gel-filtration column; molecular weight under native condition calculated from the retention volume (Kav) against a calibration curve

L. menadoensis uricase, wild type (LM-UOX-6His) (enzyme, UniProt M3XGK0 1-306, looked up, Uricase (urate oxidase) of Latimeria menadoensis, 306 amino acids; synthetic cDNA amplified with primers from the start codon to the last codon (no stop codon), cloned NdeI/XhoI into pET20b(+); The His6 tag is joined to the protein by two residues from the XhoI site; also called WT; WT LM-UOX; source: E. coli BL21(DE3), purified (Ni-NTA IMAC, gel filtration); not shown: His6, C-terminal, kept) MSHYVSSTRFQKDTDVEFVRTGYGKNIVKVLHIKREGKTHYIKEVEVAVQLALKSRKDYLYGDNSDIIPTDTMKNTVHALAKLKGINTIEEFAMDICEHFLTSFNHVTRANTYVEEAPWKRMEKNEVKHVHAFIYSPEATRFCEVEHHQNEPPVVHSGIKDMKVLKTTQSGFEGFVKDRFTTLPEVTDRCFSTVIYSKWLYNRSKNIDFDAAWKTVYDVIIEKFAGPYECGEYSPSVQKTLYETQVLCLNRVPEIEEVEIVMPNKHYFTIDMSKIGIVNKDEVLLPLDNPSGNITGTVRRKAHSKL    4

Now look at this one.
// query Supply measured stoichiometry N of L. menadoensis uricase A132C/A225C mutant (enzyme, UniProt M3XGK0 1-306, looked up, His6 tag joined by two residues from the XhoI site, as in m1; source: E. coli BL21(DE3), purified (Ni-NTA IMAC, gel filtration); not shown: His6, C-terminal, kept) MSHYVSSTRFQKDTDVEFVRTGYGKNIVKVLHIKREGKTHYIKEVEVAVQLALKSRKDYLYGDNSDIIPTDTMKNTVHALAKLKGINTIEEFAMDICEHFLTSFNHVTRANTYVEEAPWKRMEKNEVKHVHCFIYSPEATRFCEVEHHQNEPPVVHSGIKDMKVLKTTQSGFEGFVKDRFTTLPEVTDRCFSTVIYSKWLYNRSKNIDFDAAWKTVYDVIIEKFCGPYECGEYSPSVQKTLYETQVLCLNRVPEIEEVEIVMPNKHYFTIDMSKIGIVNKDEVLLPLDNPSGNITGTVRRKAHSKL in your reply.
// result 4
